- Tested on: Plasmodium berghei
- TEST_SUMMARY: Screen against P. berghei liver stage (PbLuc), transformed with Luciferase, at 2uM
- Assay type: functional, HepG2
- SETUP_CONDITIONS: tested at 2 uM
Screen size: about 68,000 compounds; about 2,700 (4%) showed an effect of 50% or more. The entries come from a sample that favours strong results as a whole.
METRIC_NAME: INHIBITION (%)

molecule=NC(=O)NC(=O)CCSc1ccccc1Cl metric_name=INHIBITION reading=12.14
molecule="COc1ccc(CN2CCCC3(CCN(c4ccsc4)C3=O)C2)cc1 (stereo unspecified)" metric_name=INHIBITION reading=7.21
molecule=CCCNC(=O)c1nc2c(o1)CN(C(=O)CN(C)C)C2 metric_name=INHIBITION reading=-31.4
molecule=CC(=O)N[C@@H](C)C(=O)NCc1cccnc1Oc1ccccc1F metric_name=INHIBITION reading=-66.28
molecule=Cc1cc(C)cc(NC(=O)Nc2c(O)c3ccccc3oc2=O)c1 metric_name=INHIBITION reading=19.49
molecule="O=C(c1cccnc1)N1CCOC(c2ccc(-c3cncnc3)cn2)C1 (stereo unspecified)" metric_name=INHIBITION reading=-6.04
molecule=CN(C)CC(=O)N1Cc2nc(C(=O)NCc3ccncc3)oc2C1 metric_name=INHIBITION reading=52.08
molecule=CN(C)CC(=O)N1Cc2nc(C(=O)NCc3ccccc3)oc2C1 metric_name=INHIBITION reading=16.4
molecule=O=C(C1=CCCC1)N1CCC[C@]2(C[C@@H](OCc3ccccn3)CO2)C1 metric_name=INHIBITION reading=3.72
molecule="CC(C)CC(O)C1CCN(C(=O)c2coc(CN3CCOCC3)c2)CC1 (stereo unspecified)" metric_name=INHIBITION reading=13.19
molecule=Cc1ncc(CN(C)C(=O)Nc2cccc(N3CCNC3=O)c2)s1 metric_name=INHIBITION reading=-82.26

Each recorded value in this set is attributed to ChEMBL document CHEMBL4513216.
